# credit: patent US7658917

# ASSAYED_SYSTEM: natural β-amyloid peptide β-AP1-40 (human)
# Sequence (peptide, as listed by the source): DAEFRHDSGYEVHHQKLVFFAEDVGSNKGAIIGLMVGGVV
# PROTOCOL: cell-based or functional assay
Ends that are not written are not given here. * marks the point of attachment. Cholyl = C[C@H](CCC(=O)*)[C@H]1CC[C@H]2[C@@H]3[C@H](O)C[C@@H]4C[C@H](O)CC[C@]4(C)[C@H]3C[C@H](O)[C@]12C
MEASURED_ATTRIBUTE: % Inhibition of Plateau; nucleation assay; 33 mole %

Here's what some known entries look like.
Cholyl-HDSGYEVHHQKL-NH2 (SMILES CC(C)C[C@H](NC(=O)[C@H](CCCCN)NC(=O)[C@H](CCC(N)=O)NC(=O)[C@H](Cc1c[nH]cn1)NC(=O)[C@H](Cc1c[nH]cn1)NC(=O)[C@@H](NC(=O)[C@H](CCC(=O)O)NC(=O)[C@H](Cc1ccc(O)cc1)NC(=O)CNC(=O)[C@H](CO)NC(=O)[C@H](CC(=O)O)NC(=O)[C@H](Cc1c[nH]cn1)NC(=O)CC[C@@H](C)[C@H]1CC[C@H]2[C@@H]3[C@H](O)C[C@@H]4C[C@H](O)CC[C@]4(C)[C@H]3C[C@H](O)[C@]12C)C(C)C)C(N)=O) [cholyl-Aβ6-17-amide]
~0%
Cholyl-QKLVFF-OH (SMILES CC(C)C[C@H](NC(=O)[C@H](CCCCN)NC(=O)[C@H](CCC(N)=O)NC(=O)CC[C@@H](C)[C@H]1CC[C@H]2[C@@H]3[C@H](O)C[C@@H]4C[C@H](O)CC[C@]4(C)[C@H]3C[C@H](O)[C@]12C)C(=O)N[C@H](C(=O)N[C@@H](Cc1ccccc1)C(=O)N[C@@H](Cc1ccccc1)C(=O)O)C(C)C) [cholyl-Aβ15-20]
50%
Cholyl-HHQKLVFF [cholyl-Aβ13-20]
~0%

Now turn to the next binder.
[Q] I have this binder here, Cholyl-DSGYEVHHQKLVFF [cholyl-Aβ7-20] , and I need its recorded % Inhibition of Plateau; nucleation assay; 33 mole %.
[A] ~0%
